Every entry's value here was drawn from patent US20240132578A1.

Below is a list of entries, each paired with its recorded IC50, pseudovirus neutralization (TZM-bl assay) value.
- EXPERIMENTAL_TARGET: HIV-1 Env of pseudovirus PVO.4 (HIV-1)
- PROTOCOL_DETAILS: cell-based or functional assay
Report the value in µg/mL with no unit label.

Use the examples below as a reference point.
1503_H05 (PG16) (TCN-119) (antibody, V domains shown) VH: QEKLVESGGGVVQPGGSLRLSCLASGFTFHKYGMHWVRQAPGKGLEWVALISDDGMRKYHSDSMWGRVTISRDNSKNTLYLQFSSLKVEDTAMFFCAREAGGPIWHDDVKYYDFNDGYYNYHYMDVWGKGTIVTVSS VL: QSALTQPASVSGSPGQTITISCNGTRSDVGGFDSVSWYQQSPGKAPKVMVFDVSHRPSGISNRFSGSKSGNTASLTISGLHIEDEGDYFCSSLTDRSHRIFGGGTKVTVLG; 11
1456_A12 (PG16) (TCN-117) (antibody, V domains shown) VH: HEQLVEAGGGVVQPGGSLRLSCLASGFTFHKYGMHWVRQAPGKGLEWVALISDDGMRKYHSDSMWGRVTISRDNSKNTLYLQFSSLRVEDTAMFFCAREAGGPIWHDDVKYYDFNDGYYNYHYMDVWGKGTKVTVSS VL: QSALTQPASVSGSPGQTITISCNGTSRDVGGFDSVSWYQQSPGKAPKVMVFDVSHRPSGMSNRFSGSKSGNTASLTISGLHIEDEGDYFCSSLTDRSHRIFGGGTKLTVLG; 10.4
1469_M23 (PG16) (TCN-118) (antibody, V domains shown) VH: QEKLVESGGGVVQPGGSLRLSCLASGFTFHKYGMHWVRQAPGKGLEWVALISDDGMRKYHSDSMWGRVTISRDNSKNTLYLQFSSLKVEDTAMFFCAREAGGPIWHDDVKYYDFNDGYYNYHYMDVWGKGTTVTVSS VL: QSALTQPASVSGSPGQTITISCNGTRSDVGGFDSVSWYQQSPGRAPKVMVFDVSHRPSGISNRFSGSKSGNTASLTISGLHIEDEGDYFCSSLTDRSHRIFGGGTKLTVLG; 21.2

Please find the next binder below.
Task: Could you share which IC50, pseudovirus neutralization (TZM-bl assay) value was measured for 1489_I13 (PG16) (TCN-120) (antibody, V domains shown) VH: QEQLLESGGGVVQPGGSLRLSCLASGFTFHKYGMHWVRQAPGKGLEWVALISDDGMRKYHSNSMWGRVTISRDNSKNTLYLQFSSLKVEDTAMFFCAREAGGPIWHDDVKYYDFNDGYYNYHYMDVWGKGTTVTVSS VL: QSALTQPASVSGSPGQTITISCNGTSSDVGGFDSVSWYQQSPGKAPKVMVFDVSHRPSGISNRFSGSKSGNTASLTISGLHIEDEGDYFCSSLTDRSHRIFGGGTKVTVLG ?
Output: 20.6
